studyTarget: BRAF V600E (Homo sapiens, UniProt P15056, V600E)
Sequence (P15056 whole entry V600E): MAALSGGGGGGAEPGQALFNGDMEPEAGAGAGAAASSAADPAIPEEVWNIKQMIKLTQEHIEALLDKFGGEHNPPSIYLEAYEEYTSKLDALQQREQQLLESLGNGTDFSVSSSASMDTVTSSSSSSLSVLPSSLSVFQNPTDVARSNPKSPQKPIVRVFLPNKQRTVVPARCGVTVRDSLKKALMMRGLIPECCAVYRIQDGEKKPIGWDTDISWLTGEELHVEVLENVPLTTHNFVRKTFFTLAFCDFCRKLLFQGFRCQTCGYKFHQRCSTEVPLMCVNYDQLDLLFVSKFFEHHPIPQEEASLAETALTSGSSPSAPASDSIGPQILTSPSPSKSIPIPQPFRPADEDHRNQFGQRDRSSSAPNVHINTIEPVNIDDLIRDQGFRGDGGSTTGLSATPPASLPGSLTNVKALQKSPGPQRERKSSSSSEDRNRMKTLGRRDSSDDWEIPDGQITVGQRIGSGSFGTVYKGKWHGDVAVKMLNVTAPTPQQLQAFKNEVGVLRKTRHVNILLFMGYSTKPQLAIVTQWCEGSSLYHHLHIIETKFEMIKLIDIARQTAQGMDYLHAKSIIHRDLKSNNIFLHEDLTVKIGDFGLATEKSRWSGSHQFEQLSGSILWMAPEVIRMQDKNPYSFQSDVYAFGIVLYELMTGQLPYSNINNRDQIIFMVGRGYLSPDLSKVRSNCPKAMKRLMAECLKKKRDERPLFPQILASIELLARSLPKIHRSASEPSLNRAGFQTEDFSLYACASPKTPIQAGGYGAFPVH
experimentNotes: HiBiT cellular BRAF^V600E degradation assay
Format: cell-based
conditionNotes: A375.10 cells, 24 h; concentration at which 50% of total cellular BRAF^V600E is degraded
valueType: DC50 (nM)

1. CCN(C)S(=O)(=O)Nc1ccc(F)c(Oc2ccc3ncn(C4CCC5(CC4)CCN(C(=O)CN4CCC(c6ccc(NC7CCC(=O)NC7=O)cc6F)CC4)C5)c(=O)c3c2)c1C#N (stereo not drawn)	40.3
2. CCN(C)S(=O)(=O)Nc1ccc(F)c(Oc2ccc3ncn([C@H]4COC5(CCN(C(=O)CN6CCC(c7ccc(NC8CCC(=O)NC8=O)cc7F)CC6)CC5)C4)c(=O)c3c2F)c1C#N (stereo partly drawn)	39.9
3. CCN(C)S(=O)(=O)Nc1ccc(F)c(Oc2ccc3ncn([C@H]4COC5(CCN(C(=O)CN6CCC(c7ccc(NC8CCC(=O)NC8=O)cc7F)CC6)CC5)C4)c(=O)c3c2Br)c1C#N (single isomer, unassigned)	30.7
